Data export: ΔTm values recorded with Tyrosine-protein kinase JAK1 (Homo sapiens).

structureNotation: O=C1c2ccccc2-c2n[nH]c3cccc1c23
ΔTm, °C: 5.5
//
structureNotation: Oc1cccc(-c2nc(N3CCOCC3)c3oc4ncccc4c3n2)c1
ΔTm, °C: 0.1
//
structureNotation: C[C@@H]1C[C@H]2O[C@@H]2/C=C\C=C\C(=O)Cc2c(Cl)c(O)cc(O)c2C(=O)O1
ΔTm, °C: -0.2
//
structureNotation: CC[C@H](CO)Nc1nc(NCc2ccccc2)c2ncn(C(C)C)c2n1
ΔTm, °C: 0.1
//
structureNotation: O=C(O)Cc1ccc(O)c([N+](=O)[O-])c1
ΔTm, °C: -0.3
//
structureNotation: N#CC(C#N)=Cc1ccc(O)c(O)c1
ΔTm, °C: 0.1
//
structureNotation: Nc1cc2ncnc(Nc3cccc(Br)c3)c2cc1N
ΔTm, °C: 2.2
//
structureNotation: O=C1C=C2C(=Nc3c2c2c(c4c3=NC3=C4CCC=C3)C=NC=2)CC1
ΔTm, °C: 6.9
//
structureNotation: COc1cc(O)c2c(c1)oc(=O)c1c3cc(O)c(O)cc3oc21
ΔTm, °C: 2.2
//
structureNotation: O=c1cc(N2CCOCC2)oc2c1ccc1ccccc12
ΔTm, °C: 0.8
//
structureNotation: O=C(O)c1cc(NCc2cc(O)ccc2O)ccc1O
ΔTm, °C: -0.2
//
structureNotation: OC[C@H]1O[C@@H](n2cnc3cc(Cl)c(Cl)cc32)[C@H](O)[C@@H]1O
ΔTm, °C: 0

Value source: ChEMBL document CHEMBL1145498
